conditions: in 2-butanone, 298.15 K

{"compoundStructureString": "Clc1ccc2c(c1)Nc1ccccc1S2", "solubility (mole fraction)": 0.0484}

---

settings: in ethanol, 295.65 K

{"compoundStructureString": "Clc1ccc2c(c1)Nc1ccccc1S2", "solubility (mole fraction)": 0.00525}

---

conditions: in acetonitrile, 283.15 K

{"compoundStructureString": "Clc1ccc2c(c1)Nc1ccccc1S2", "solubility (mole fraction)": 0.00354}

---

conditions: in ethanol, 310.65 K
quantityMeasured: solubility (mole fraction)

{"compoundStructureString": "Clc1ccc2c(c1)Nc1ccccc1S2", "valueObserved": 0.00667}

---

conditions: in n-propanol, 285.65 K
quantityMeasured: solubility (mole fraction)

{"compoundStructureString": "Clc1ccc2c(c1)Nc1ccccc1S2", "valueObserved": 0.00426}

---

settings: in ethyl acetate, 295.65 K

{"compoundStructureString": "Clc1ccc2c(c1)Nc1ccccc1S2", "solubility (mole fraction)": 0.0265}

---

conditions: in acetone, 293.15 K

{"compoundStructureString": "Clc1ccc2c(c1)Nc1ccccc1S2", "solubility (mole fraction)": 0.0336}

---

conditions: in methanol, 315.65 K

{"compoundStructureString": "Clc1ccc2c(c1)Nc1ccccc1S2", "solubility (mole fraction)": 0.00786}

---

conditions: in 2-butanone, 295.65 K

{"compoundStructureString": "Clc1ccc2c(c1)Nc1ccccc1S2", "solubility (mole fraction)": 0.0455}

---

conditions: in 2-butanone, 288.15 K
quantityMeasured: solubility (mole fraction)

{"compoundStructureString": "Clc1ccc2c(c1)Nc1ccccc1S2", "quantityMeasured": "solubility (mole fraction)", "valueObserved": 0.0378}

---

conditions: in methanol, 283.15 K

{"compoundStructureString": "Clc1ccc2c(c1)Nc1ccccc1S2", "solubility (mole fraction)": 0.00465}

---

conditions: in methanol, 285.65 K
quantityMeasured: solubility (mole fraction)

{"compoundStructureString": "Clc1ccc2c(c1)Nc1ccccc1S2", "quantityMeasured": "solubility (mole fraction)", "valueObserved": 0.00483}

---

settings: in n-butanol, 315.65 K
quantityMeasured: solubility (mole fraction)

{"compoundStructureString": "Clc1ccc2c(c1)Nc1ccccc1S2", "valueObserved": 0.00624}

---

conditions: in isopropanol, 300.65 K
quantityMeasured: solubility (mole fraction)

{"compoundStructureString": "Clc1ccc2c(c1)Nc1ccccc1S2", "valueObserved": 0.00513}

---

conditions: in 2-butanone, 308.15 K
quantityMeasured: solubility (mole fraction)

{"compoundStructureString": "Clc1ccc2c(c1)Nc1ccccc1S2", "quantityMeasured": "solubility (mole fraction)", "valueObserved": 0.0612}

---

details: in methanol, 305.65 K
quantityMeasured: solubility (mole fraction)

{"compoundStructureString": "Clc1ccc2c(c1)Nc1ccccc1S2", "valueObserved": 0.00673}

---

conditions: in acetonitrile, 298.15 K

{"compoundStructureString": "Clc1ccc2c(c1)Nc1ccccc1S2", "solubility (mole fraction)": 0.00532}

---

conditions: in methanol, 313.15 K

{"compoundStructureString": "Clc1ccc2c(c1)Nc1ccccc1S2", "solubility (mole fraction)": 0.00758}

---

conditions: in n-butanol, 290.65 K

{"compoundStructureString": "Clc1ccc2c(c1)Nc1ccccc1S2", "solubility (mole fraction)": 0.00381}

---

conditions: in acetone, 288.15 K

{"compoundStructureString": "Clc1ccc2c(c1)Nc1ccccc1S2", "solubility (mole fraction)": 0.03}
